method: Hemolytic activity in mouse RBC at 32 ug/ml incubated for 1 hr
Assay type: toxicity, cell-based, Erythrocyte
measurement_setup: red blood cells (erythrocytes), at 32 µg/mL, read-out: Activity
endpoint: hemolysis at 1 h, 32 ug/ml

Sample O=C(NNc1cccc(F)c1)c1ccc2ccccc2n1 — what was its hemolysis at 1 h, 32 ug/ml?
20%

---

Tested on: Staphylococcus epidermidis
method: Antibacterial activity against Staphylococcus epidermidis ATCC 12228
Type: functional
Please provide measured MIC for the entries that follow.

A selection of reference data follows.
COc1ccc(NNC(=O)c2ccc(F)cn2)cc1 > 64 µg/mL
O=C(NNc1cccc(Cl)c1)c1ccccn1 > 64 µg/mL
O=C(NNc1ccc(Cl)cc1)c1ccccc1 64 µg/mL
O=C(NNc1ccc(Cl)cc1)c1ccc(F)cc1F > 64 µg/mL
O=C(NNc1ccc(Cl)cc1)c1ccc2ccccc2n1 > 64 µg/mL

For each entry beneath this line, provide reported MIC.
1. O=C(NNc1ccc(Cl)cc1)c1cccc(F)n1
2. O=C(O)c1cn(C2CC2)c2cc(N3CCNCC3)c(F)cc2c1=O
3. O=C(NNc1ccc(Cl)cc1)c1cc2ccccc2[nH]1
4. O=C(NNc1ccc(Cl)cc1)c1ccccn1
5. CCC(=O)NNc1ccc(Cl)cc1
6. CCOC(=O)CNNC(=O)c1ccc2ccccc2n1
7. O=C(NNc1cccc(F)c1)c1ccc(F)cn1
8. O=C(NNc1ccc(Cl)cc1)c1ccco1

["> 64 µg/mL", "≤ 0.063 µg/mL", "> 64 µg/mL", "> 64 µg/mL", "> 64 µg/mL", "> 64 µg/mL", "> 64 µg/mL", "64 µg/mL"]
